Entries and their measured inhibition at 20 µg/mL follow.
# Test system: UniProt P04746
# Sequence (P04746 16-511): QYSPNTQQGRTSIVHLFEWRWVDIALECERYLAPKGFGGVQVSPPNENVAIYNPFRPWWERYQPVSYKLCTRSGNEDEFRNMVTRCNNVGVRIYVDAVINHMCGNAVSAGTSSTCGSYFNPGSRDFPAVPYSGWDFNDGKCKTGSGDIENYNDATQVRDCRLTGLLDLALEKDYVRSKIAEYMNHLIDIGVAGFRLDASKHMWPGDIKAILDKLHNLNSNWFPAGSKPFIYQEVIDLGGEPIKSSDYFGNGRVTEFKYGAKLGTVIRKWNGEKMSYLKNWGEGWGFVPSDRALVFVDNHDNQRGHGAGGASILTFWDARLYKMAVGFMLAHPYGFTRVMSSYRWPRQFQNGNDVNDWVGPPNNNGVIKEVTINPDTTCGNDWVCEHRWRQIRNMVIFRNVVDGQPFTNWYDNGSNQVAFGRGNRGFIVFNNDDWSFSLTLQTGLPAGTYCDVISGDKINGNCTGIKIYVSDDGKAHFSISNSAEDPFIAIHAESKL
# Assay comment: α-Amylase inhibition
# Assay type: biochemical
# Test conditions: read-out: α-Amylase Inhibition (%)
Numeric only. Scale: %

>  <Compound>
O=c1/c(=C\[C@@H](O)[C@@H](O)[C@H](O)[C@H](O)CO)sc2nc3sc4c(c3c(=O)n12)CCCC4 [8b]

>  <inhibition at 20 µg/mL, %>
61.5

$$$$
>  <Compound>
O=c1/c(=C\[C@H](O)[C@@H](O)[C@H](O)[C@H](O)CO)sc2nc3sc4c(c3c(=O)n12)CCC4 [7a]

>  <inhibition at 20 µg/mL, %>
13.4

$$$$
>  <Compound>
O=c1/c(=C\[C@@H](O)[C@H](O)[C@H](O)CO)sc2nc3sc4c(c3c(=O)n12)CCCC4 [8e]

>  <inhibition at 20 µg/mL, %>
62.2

$$$$
>  <Compound>
O=c1/c(=C\[C@H](O)[C@@H](O)[C@H](O)[C@H](O)CO)sc2nc3sc4c(c3c(=O)n12)CCCC4 [8a]

>  <inhibition at 20 µg/mL, %>
10.1

$$$$
>  <Compound>
O=c1/c(=C\[C@@H](O)[C@@H](O)[C@H](O)[C@H](O)CO)sc2nc3sc4c(c3c(=O)n12)CCC4 [7b]

>  <inhibition at 20 µg/mL, %>
17.3

$$$$

q: Requested read-out: inhibition at 20 µg/mL. Entry: C[C@H]1O[C@H](O[C@H]2[C@H](O)[C@@H](O)[C@@H](O[C@H]3[C@H](O)[C@@H](O)C(O)O[C@@H]3CO)O[C@@H]2CO)[C@H](O)[C@@H](O)[C@@H]1N[C@H]1C=C(CO)[C@@H](O)[C@H](O)[C@H]1O (stereo partly drawn) [Acarbose, reference compound]
a: 69.8

###

# Test system: α-glucosidase
# Assay comment: α-Glucosidase inhibition
# Format: biochemical
The recorded α-Glucosidase IC50 of each item maps onto one of these classes: low: < 20 µg/mL; mid: ≥ 20 µg/mL and < 30 µg/mL; high: ≥ 30 µg/mL

Check out these entries, answers already filled in.
>  <Compound>
O=c1/c(=C\[C@H](O)[C@@H](O)[C@H](O)[C@H](O)CO)sc2nc3sc4c(c3c(=O)n12)CCCC4 [8a]

>  <Label>
high

$$$$
>  <Compound>
O=c1/c(=C\[C@@H](O)[C@H](O)[C@H](O)CO)sc2nc3sc4c(c3c(=O)n12)CCC4 [7e]

>  <Label>
mid

$$$$
>  <Compound>
O=c1/c(=C\[C@H](O)[C@@H](O)[C@H](O)[C@H](O)CO)sc2nc3sc4c(c3c(=O)n12)CCC4 [7a]

>  <Label>
high

$$$$

q: Hi, small favor: classify O=c1/c(=C\[C@H](O)[C@@H](O)[C@@H](O)[C@H](O)CO)sc2nc3sc4c(c3c(=O)n12)CCCC4 [8c] by its α-Glucosidase IC50 when you get a moment.
a: high

q: Moving on to O=c1/c(=C\[C@@H](O)[C@H](O)[C@H](O)CO)sc2nc3sc4c(c3c(=O)n12)CCCC4 [8e]
a: low

q: # iterate: O=c1/c(=C\[C@H](O)[C@@H](O)[C@H](O)CO)sc2nc3sc4c(c3c(=O)n12)CCCC4 [8d]
a: high

q: What do you have for O=c1/c(=C\[C@H](O)[C@@H](O)[C@H](O)CO)sc2nc3sc4c(c3c(=O)n12)CCC4 [7d] ?
a: mid

q: Same lookup for O=c1/c(=C\[C@H](O)[C@@H](O)[C@@H](O)[C@H](O)CO)sc2nc3sc4c(c3c(=O)n12)CCC4 [7c] , please.
a: mid

q: Another compound to look at: O=c1/c(=C\[C@@H](O)[C@@H](O)[C@H](O)[C@H](O)CO)sc2nc3sc4c(c3c(=O)n12)CCCC4 [8b]
a: low

Values were extracted from paper PMC12652222.
